- Test system: NCI-H1573 (Lung Adenocarcinoma);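 note: after 72 h of two-drug dosing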
- method: Bliss excess, mean over the matrix (fraction); higher = more synergy
Reported Bliss excess values for a set of molecules
Enter a number only.

# annotated cases, reported Bliss excess shown
molecule	assayed_target	Bliss excess
CCN(CCO)CCCOc1ccc2c(Nc3cc(CC(=O)Nc4cccc(F)c4)[nH]n3)ncnc2c1 [AZD2811] + C[C@@H]1COCCN1C2=NC(=NC(=C2)C3(CC3)[S@](=N)(=O)C)C4=C5C=CNC5=NC=C4 [AZD6738] (first compound max 1 µM, 7x7, partner max 10 µM)	NCI-H1573 (Lung Adenocarcinoma)	-0.0613
Cc1cc2ncnn2cc1Nc1ncc2c(n1)n(C1CCOCC1)c(=O)n2C [AZD7648] + CN(C)CCCOc1ccc(-c2ccc3ncc4c(c3c2)n(C2CCOCC2)c(=O)n4C)cn1 [AZD0156] (first compound max 10 µM, 7x7, partner max 1 µM)	NCI-H1573 (Lung Adenocarcinoma)	-0.0085
CS(=O)(=O)CCNCc1ccc(-c2ccc3ncnc(Nc4ccc(OCc5cccc(F)c5)c(Cl)c4)c3c2)o1 [Lapatinib] + NC1(c2ccc(-c3nc4ccn5c(=O)[nH]nc5c4cc3-c3ccccc3)cc2)CCC1 [MK-2206] (first compound max 10 µM, 7x7, partner max 10 µM)	NCI-H1573 (Lung Adenocarcinoma)	-0.0055
CC(=O)c1c(C)c2cnc(Nc3ccc(N4CCNCC4)cn3)nc2n(C2CCCC2)c1=O [Palbociclib] + Cc1c2c(nn1C)CSCc1cc(n(C)n1)CSc1cc(c3ccccc3c1)OCCCc1c(C(=O)O)n(C)c3c-2c(Cl)ccc13 [AZD5991] (first compound max 10 µM, 7x7, partner max 1 µM)	NCI-H1573 (Lung Adenocarcinoma)	-0.0539
Cc1c2c(nn1C)CSCc1cc(n(C)n1)CSc1cc(c3ccccc3c1)OCCCc1c(C(=O)O)n(C)c3c-2c(Cl)ccc13 [AZD5991] + CC1(C)CCC(CN2CCN(c3ccc(C(=O)NS(=O)(=O)c4ccc(NCC5CCOCC5)c([N+](=O)[O-])c4)c(Oc4cnc5[nH]ccc5c4)c3)CC2)=C(c2ccc(Cl)cc2)C1 [Venetoclax] (first compound max 1 µM, 7x7, partner max 1 µM)	NCI-H1573 (Lung Adenocarcinoma)	-0.036

Req: Bliss excess for CC(=O)c1c(C)c2cnc(Nc3ccc(N4CCNCC4)cn3)nc2n(C2CCCC2)c1=O [Palbociclib] + CC1(C)CCC(CN2CCN(c3ccc(C(=O)NS(=O)(=O)c4ccc(NCC5CCOCC5)c([N+](=O)[O-])c4)c(Oc4cnc5[nH]ccc5c4)c3)CC2)=C(c2ccc(Cl)cc2)C1 [Venetoclax] (first compound max 10 µM, 7x7, partner max 1 µM) ?
Resp: 0.0244

Req: Bliss excess for Cc1c2c(nn1C)CSCc1cc(n(C)n1)CSc1cc(c3ccccc3c1)OCCCc1c(C(=O)O)n(C)c3c-2c(Cl)ccc13 [AZD5991] + C[C@@H](Nc1cc(F)cc(F)c1)c1cc(C(=O)N(C)C)cc2c(=O)cc(N3CCOCC3)oc12 [AZD8186] (first compound max 1 µM, 7x7, partner max 3 µM) ?
Resp: -0.0303
